Reference source for all entries: ChEMBL document CHEMBL4431360

target: UniProt P51449; assay: Inverse agonist activity at RORgamma (unknown origin) expressed in human Jurkat cells assessed as inhibition of IL-17F production after 20 hrs by luciferase reporter gene assay; format: cell-based
Sequence (P51449 whole entry, the tested form may be a part): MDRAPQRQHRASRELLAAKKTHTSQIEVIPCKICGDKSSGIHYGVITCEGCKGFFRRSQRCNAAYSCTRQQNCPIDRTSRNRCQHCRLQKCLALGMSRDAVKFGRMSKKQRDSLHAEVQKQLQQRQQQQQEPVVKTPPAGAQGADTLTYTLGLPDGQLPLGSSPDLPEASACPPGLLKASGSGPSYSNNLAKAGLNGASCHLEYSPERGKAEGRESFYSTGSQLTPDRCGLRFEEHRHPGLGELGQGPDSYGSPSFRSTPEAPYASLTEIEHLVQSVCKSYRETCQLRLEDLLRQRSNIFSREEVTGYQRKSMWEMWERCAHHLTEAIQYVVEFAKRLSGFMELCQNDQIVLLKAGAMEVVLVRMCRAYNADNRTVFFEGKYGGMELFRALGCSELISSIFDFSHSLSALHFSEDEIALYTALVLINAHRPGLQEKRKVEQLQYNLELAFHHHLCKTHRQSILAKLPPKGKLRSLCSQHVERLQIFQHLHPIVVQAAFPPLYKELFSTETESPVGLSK
MEASURED_PROPERTY: IC50 (µM)
Supply the numeric figure in µM, leaving out any unit text.

Task: Which IC50 reading was recorded for the molecule Cc1ccc([C@@H](NC(=O)Cc2ccc3oc([C@@H](O)c4c(C)noc4C)cc3c2)c2ccccc2)c(C)c1 ?
Result: 0.063

====

molecular target: UniProtKB P51449; experiment: Activity at biotinylated APC-labeled human RORgamma LBD assessed as of Induction of biotinylated SRC1 peptide recruitment incubated for 1 hr by TR-FRET assay
MEASURED_PROPERTY: pIC50
Recall that pIC50 is obtained by taking minus log10 of the concentration measured in molar.

Task: Query (compound): Cc1ccc([C@@H](NC(=O)Cc2ccc3oc([C@@H](O)c4c(C)noc4C)cc3c2)c2ccccc2)c(C)c1 ; field requested: pIC50
Result: 8.15
